Test system: Staphylococcus epidermidis
Experiment: Antibacterial activity against Staphylococcus epidermidis MTCC 3615 assessed as zone of inhibition at 1 mg/disc after 24 hrs by disc diffusion method
Format: functional
Please respond with reported inhibition zone (IZ) for every item in the list.
Give bare numbers, in mm.

Consider the reported inhibition zone (IZ) for these compounds:
C#CCN1C(=O)[C@]2(c3ccccc31)[C@H](c1cn(-c3ccccc3)nc1-c1ccccc1)[C@@](C#N)(C(=O)c1c[nH]c3ccccc13)C1CCCN12 (stereo partly drawn) : 11
C#CCN1C(=O)[C@]2(c3ccccc31)[C@H](c1cn(-c3ccccc3)nc1-c1ccccc1)[C@@](C#N)(C(=O)c1c[nH]c3ccccc13)CN2C : 10

Turning now to a further record.
Req: State measured inhibition zone (IZ) of the compound CN1C[C@](C#N)(C(=O)c2c[nH]c3ccccc23)[C@@H](c2cn(-c3ccccc3)nc2-c2ccccc2)[C@@]12C(=O)Nc1ccc(Cl)cc12 with Staphylococcus epidermidis.
Resp: 8

====

Test system: Staphylococcus aureus
Assay: Antibacterial activity against Staphylococcus aureus MTCC 96 assessed as inhibition of visual growth after 24 hrs
Type: functional
Settings: MTCC 96, 24 h
Please respond with reported MIC for every item in the list.
Numbers only, in µg/mL.

Consider the reported MIC for these compounds:
C#CCN1C(=O)[C@]2(c3ccccc31)[C@H](c1cn(-c3ccccc3)nc1-c1ccccc1)[C@@](C#N)(C(=O)c1c[nH]c3ccccc13)CN2C : 500
C=CCN1C(=O)[C@]2(c3ccccc31)[C@H](c1cn(-c3ccccc3)nc1-c1ccccc1)[C@@](C#N)(C(=O)c1c[nH]c3ccccc13)C1CCCN12 (stereo partly drawn) : 125

Req: Supply recorded MIC for CCCCN1C(=O)[C@]2(c3ccccc31)[C@H](c1cn(-c3ccccc3)nc1-c1ccccc1)[C@@](C#N)(C(=O)c1c[nH]c3ccccc13)C1CCCN12 (stereo partly drawn) here.
Resp: 125

====

Test system: Staphylococcus aureus
Assay: Antibacterial activity against Staphylococcus aureus MTCC 96 assessed as inhibition of visual growth after 24 hrs
Assay type: functional
Details: MTCC 96, 24 h
measurement-type: MIC (µg/mL)
Numbers only, in µg/mL.

Consider the reported MIC for these compounds:
CN1C(=O)[C@]2(c3ccccc31)[C@H](c1cn(-c3ccccc3)nc1-c1ccccc1)[C@@](C#N)(C(=O)c1c[nH]c3ccccc13)C1CSCN12 (stereo partly drawn) : 500
CCCCN1C(=O)[C@]2(c3ccccc31)[C@H](c1cn(-c3ccccc3)nc1-c1ccccc1)[C@@](C#N)(C(=O)c1c[nH]c3ccccc13)C1CSCN12 (stereo partly drawn) : 250

Req: State measured MIC of the compound N#C[C@]1(C(=O)c2c[nH]c3ccccc23)C2CSCN2[C@]2(C(=O)Nc3ccccc32)[C@@H]1c1cn(-c2ccccc2)nc1-c1ccccc1 (stereo partly drawn) with Staphylococcus aureus.
Resp: 500

====

Please respond with reported inhibition zone (IZ) for every item in the list.
Tested on: Staphylococcus epidermidis
Assay: Antibacterial activity against Staphylococcus epidermidis MTCC 3615 assessed as zone of inhibition at 1 mg/disc after 24 hrs by disc diffusion method
Format: functional
Give bare numbers, in mm.

Consider the reported inhibition zone (IZ) for these compounds:
CN1C[C@](C#N)(C(=O)c2c[nH]c3ccccc23)[C@@H](c2cn(-c3ccccc3)nc2-c2ccccc2)[C@@]12C(=O)N(Cc1ccccc1)c1ccccc12 : 8
CC(=O)N1CCN(c2ccc(OCC3COC(Cn4ccnc4)(c4ccc(Cl)cc4Cl)O3)cc2)CC1 (centres undefined) : 14
CN1C[C@](C#N)(C(=O)c2c[nH]c3ccccc23)[C@@H](c2cn(-c3ccccc3)nc2-c2ccccc2)[C@@]12C(=O)Nc1ccccc12 : 8

Turning now to a further record.
Req: Supply recorded inhibition zone (IZ) for CN1C(=O)[C@]2(c3ccccc31)[C@H](c1cn(-c3ccccc3)nc1-c1ccccc1)[C@@](C#N)(C(=O)c1c[nH]c3ccccc13)CN2C here.
Resp: 8

====

Tested on: Klebsiella aerogenes
Assay: Antibacterial activity against Enterobacter aerogenes MTCC 111 assessed as inhibition of visual growth after 24 hrs
Format: functional
Conditions: MTCC 111, 24 h
measurement-type: MIC (µg/mL)
One number for each entry, in µg/mL.

Consider the reported MIC for these compounds:
N#C[C@]1(C(=O)c2c[nH]c3ccccc23)C2CSCN2[C@]2(C(=O)N(Cc3ccccc3)c3ccccc32)[C@@H]1c1cn(-c2ccccc2)nc1-c1ccccc1 (some centres not stated) : 250
CCCCN1C(=O)[C@]2(c3ccccc31)[C@H](c1cn(-c3ccccc3)nc1-c1ccccc1)[C@@](C#N)(C(=O)c1c[nH]c3ccccc13)C1CCCN12 (some centres not stated) : 500
CN1C(=O)[C@]2(c3ccccc31)[C@H](c1cn(-c3ccccc3)nc1-c1ccccc1)[C@@](C#N)(C(=O)c1c[nH]c3ccccc13)CN2C : 500
C=CCN1C(=O)[C@]2(c3ccccc31)[C@H](c1cn(-c3ccccc3)nc1-c1ccccc1)[C@@](C#N)(C(=O)c1c[nH]c3ccccc13)C1CCCN12 (some centres not stated) : 250
N#C[C@]1(C(=O)c2c[nH]c3ccccc23)C2CSCN2[C@]2(C(=O)Nc3ccccc32)[C@@H]1c1cn(-c2ccccc2)nc1-c1ccccc1 (some centres not stated) : 500
N#C[C@]1(C(=O)c2c[nH]c3ccccc23)C2CCCN2[C@]2(C(=O)Nc3ccccc32)[C@@H]1c1cn(-c2ccccc2)nc1-c1ccccc1 (some centres not stated) : 62.5

Turning now to a further record.
Req: Supply recorded MIC for CN1C(=O)[C@]2(c3ccccc31)[C@H](c1cn(-c3ccccc3)nc1-c1ccccc1)[C@@](C#N)(C(=O)c1c[nH]c3ccccc13)C1CCCN12 (some centres not stated) here.
Resp: 250

====

Please respond with reported MIC for every item in the list.
Tested on: Proteus vulgaris
Assay: Antibacterial activity against Proteus vulgaris MTCC 1771 assessed as inhibition of visual growth after 24 hrs
Format: functional
Details: MTCC 1771, 24 h
One number for each entry, in µg/mL.

CCCCN1C(=O)[C@]2(c3ccccc31)[C@H](c1cn(-c3ccccc3)nc1-c1ccccc1)[C@@](C#N)(C(=O)c1c[nH]c3ccccc13)CN2C : 500
CN1C[C@](C#N)(C(=O)c2c[nH]c3ccccc23)[C@@H](c2cn(-c3ccccc3)nc2-c2ccccc2)[C@@]12C(=O)Nc1ccc([N+](=O)[O-])cc12 : 250
N#C[C@]1(C(=O)c2c[nH]c3ccccc23)C2CCCN2[C@]2(C(=O)Nc3ccc([N+](=O)[O-])cc32)[C@@H]1c1cn(-c2ccccc2)nc1-c1ccccc1 (stereo partly drawn) : 125
C#CCN1C(=O)[C@]2(c3ccccc31)[C@H](c1cn(-c3ccccc3)nc1-c1ccccc1)[C@@](C#N)(C(=O)c1c[nH]c3ccccc13)C1CCCN12 (stereo partly drawn) : 250
C=CCN1C(=O)[C@]2(c3ccccc31)[C@H](c1cn(-c3ccccc3)nc1-c1ccccc1)[C@@](C#N)(C(=O)c1c[nH]c3ccccc13)C1CSCN12 (stereo partly drawn) : 500

Can you give me MIC for all of these, one by one?
1. N#C[C@]1(C(=O)c2c[nH]c3ccccc23)C2CCCN2[C@]2(C(=O)Nc3ccccc32)[C@@H]1c1cn(-c2ccccc2)nc1-c1ccccc1 (stereo partly drawn)
2. N#C[C@]1(C(=O)c2c[nH]c3ccccc23)C2CSCN2[C@]2(C(=O)Nc3ccccc32)[C@@H]1c1cn(-c2ccccc2)nc1-c1ccccc1 (stereo partly drawn)
3. C=CCN1C(=O)[C@]2(c3ccccc31)[C@H](c1cn(-c3ccccc3)nc1-c1ccccc1)[C@@](C#N)(C(=O)c1c[nH]c3ccccc13)C1CCCN12 (stereo partly drawn)
4. CN1C(=O)[C@]2(c3ccccc31)[C@H](c1cn(-c3ccccc3)nc1-c1ccccc1)[C@@](C#N)(C(=O)c1c[nH]c3ccccc13)C1CSCN12 (stereo partly drawn)
5. CN1C[C@](C#N)(C(=O)c2c[nH]c3ccccc23)[C@@H](c2cn(-c3ccccc3)nc2-c2ccccc2)[C@@]12C(=O)Nc1ccccc12
6. N#C[C@]1(C(=O)c2c[nH]c3ccccc23)C2CSCN2[C@]2(C(=O)N(Cc3ccccc3)c3ccccc32)[C@@H]1c1cn(-c2ccccc2)nc1-c1ccccc1 (stereo partly drawn)
7. CN1C(=O)[C@]2(c3ccccc31)[C@H](c1cn(-c3ccccc3)nc1-c1ccccc1)[C@@](C#N)(C(=O)c1c[nH]c3ccccc13)C1CCCN12 (stereo partly drawn)
8. CCCCN1C(=O)[C@]2(c3ccccc31)[C@H](c1cn(-c3ccccc3)nc1-c1ccccc1)[C@@](C#N)(C(=O)c1c[nH]c3ccccc13)C1CCCN12 (stereo partly drawn)

Resp:
1. 125
2. 500
3. 250
4. 500
5. 500
6. 500
7. 250
8. 250

Can you give me MIC for all of these, one by one?
1. C=CCN1C(=O)[C@]2(c3ccccc31)[C@H](c1cn(-c3ccccc3)nc1-c1ccccc1)[C@@](C#N)(C(=O)c1c[nH]c3ccccc13)CN2C
2. CN1C(=O)[C@]2(c3ccccc31)[C@H](c1cn(-c3ccccc3)nc1-c1ccccc1)[C@@](C#N)(C(=O)c1c[nH]c3ccccc13)CN2C
3. CCCCN1C(=O)[C@]2(c3ccccc31)[C@H](c1cn(-c3ccccc3)nc1-c1ccccc1)[C@@](C#N)(C(=O)c1c[nH]c3ccccc13)C1CSCN12 (stereo partly drawn)
4. CN1C[C@](C#N)(C(=O)c2c[nH]c3ccccc23)[C@@H](c2cn(-c3ccccc3)nc2-c2ccccc2)[C@@]12C(=O)N(Cc1ccccc1)c1ccccc12
5. C#CCN1C(=O)[C@]2(c3ccccc31)[C@H](c1cn(-c3ccccc3)nc1-c1ccccc1)[C@@](C#N)(C(=O)c1c[nH]c3ccccc13)CN2C

Resp:
[500, 250, 500, 250, 500]
